- System: primary equine melanoma cells eRGO1
- Method description: MTS cytotoxicity assay (CellTiter 96 AQueous One Solution)
- Assay type: cell-based, horse
- Condition info: Equus caballus; eRGO1, 48 h treatment; mean (95% CI), 6–8 experiments
pIC50: −log10 of the molar value.
Measurement label: pIC50

molecule="C=C(C)[C@@H]1CC[C@]2(C(=O)O)CC[C@]3(C)[C@H](CC[C@@H]4[C@@]5(C)CC[C@H](O)C(C)(C)[C@@H]5CC[C@]43C)[C@@H]12 [betulinic acid, Betulinic acid]" experimental_target="primary equine melanoma cells eRGO1" measured_value=4.68

---

- Tested on: primary equine melanoma cells MelDuWi
- Method description: Crystal violet staining (CVS) proliferation assay
- Type: cell-based, horse
- Condition info: Equus caballus, 24 h treatment, mean (95% CI), 6–8 experiments
pIC50: −log10 of the molar value.
Measurement label: pIC50

compound="C=C(C)[C@@H]1CC[C@]2(C(=O)O)CC[C@]3(C)[C@H](CC[C@@H]4[C@@]5(C)CC[C@H](O)C(C)(C)[C@@H]5CC[C@]43C)[C@@H]12 [betulinic acid, Betulinic acid]" measurement_label=pIC50 measured_value=4.31

---

- Tested on: primary equine melanoma cells MelDuWi
- Method description: Crystal violet staining (CVS) proliferation assay
- Assay type: cell-based, horse
- Condition info: Equus caballus, 96 h treatment, mean (95% CI), 6–8 experiments
Measurement label: IC50 (µM)

compound_string=C=C(C)[C@@H]1CC[C@]2(C(=O)O)CC[C@]3(C)[C@H](CC[C@@H]4[C@@]5(C)CC[C@H](O)C(C)(C)[C@@H]5CC[C@]43C)[C@@H]12 measurement_label=IC50 measured_value=21.6

---

- Tested on: primary equine dermal fibroblasts PriFi1
- Method description: MTS cytotoxicity assay (CellTiter 96 AQueous One Solution)
- Type: cell-based, horse
- Condition info: Equus caballus, Fibroblast; PriFi1, 48 h treatment; mean (95% CI), 6–8 experiments
pIC50: −log10 of the molar value.
Measurement label: pIC50

compound_string=C=C(C)[C@@H]1CC[C@]2(C(=O)O)CC[C@]3(C)[C@H](CC[C@@H]4[C@@]5(C)CC[C@H](O)C(C)(C)[C@@H]5CC[C@]43C)[C@@H]12 measured_value=4.74

---

- System: primary equine melanoma cells MelDuWi
- Method description: MTS cytotoxicity assay (CellTiter 96 AQueous One Solution)
- Assay type: cell-based, horse
- Condition info: Equus caballus, 24 h treatment, mean (95% CI), 6–8 experiments
Measurement label: IC50 (µM)

compound="C=C(C)[C@@H]1CC[C@]2(C(=O)O)CC[C@]3(C)[C@H](CC[C@@H]4[C@@]5(C)CC[C@H](O)C(C)(C)[C@@H]5CC[C@]43C)[C@@H]12 [betulinic acid, Betulinic acid]" measurement_label=IC50 measured_value=34.6
